System: NCI-H2087
Test: relative viability (nuclei count vs DMSO), 5 days (fraction); higher = more cells survive
Details: first compound 2.53 µM
Exercise: state measured relative viability for each of the compounds provided.
Give bare numbers.

compound: O=c1[nH]c2ccccc2n1C1CCN(CCCC(c2ccc(F)cc2)c2ccc(F)cc2)CC1 [Pimozide] + Cc1nc(Nc2ncc(C(=O)Nc3c(C)cccc3Cl)s2)cc(N2CCN(CCO)CC2)n1 [Dasatinib] (partner 0.075 µM)
target_desc: NCI-H2087
number: 0.642

Okay, now this compound:
The value of relative viability recorded for O=c1[nH]c2ccccc2n1C1CCN(CCCC(c2ccc(F)cc2)c2ccc(F)cc2)CC1 [Pimozide] + CC(=O)Nc1cccc(-n2c(=O)n(C3CC3)c(=O)c3c(Nc4ccc(I)cc4F)n(C)c(=O)c(C)c32)c1 [Trametinib] (partner 0.02 µM) when tested on NCI-H2087 reads 0.179

###

Exercise: state measured relative viability for each of the compounds provided.
System: HOP-62
Assay: relative viability (nuclei count vs DMSO), 5 days (fraction); higher = more cells survive
Details: first compound 0.02 µM
One number for each entry.

Field: example entries. Status: answers known.
compound: CC(=O)O[C@@]12CO[C@@H]1C[C@H](O)[C@@]1(C)C(=O)[C@H](O)C3=C(C)[C@@H](OC(=O)[C@H](O)[C@@H](NC(=O)OC(C)(C)C)c4ccccc4)C[C@@](O)([C@@H](OC(=O)c4ccccc4)[C@H]21)C3(C)C [Docetaxel] + CS(=O)(=O)CCNCc1ccc(-c2ccc3ncnc(Nc4ccc(OCc5cccc(F)c5)c(Cl)c4)c3c2)o1 [Lapatinib] (partner 2 µM)
target_desc: HOP-62
relative viability: 0.112

compound: CC(=O)O[C@@]12CO[C@@H]1C[C@H](O)[C@@]1(C)C(=O)[C@H](O)C3=C(C)[C@@H](OC(=O)[C@H](O)[C@@H](NC(=O)OC(C)(C)C)c4ccccc4)C[C@@](O)([C@@H](OC(=O)c4ccccc4)[C@H]21)C3(C)C [Docetaxel] + Cc1nc(Nc2ncc(C(=O)Nc3c(C)cccc3Cl)s2)cc(N2CCN(CCO)CC2)n1 [Dasatinib] (partner 0.075 µM)
target_desc: HOP-62
relative viability: 0.155

Okay, now this compound:
The value of relative viability recorded for CC(=O)O[C@@]12CO[C@@H]1C[C@H](O)[C@@]1(C)C(=O)[C@H](O)C3=C(C)[C@@H](OC(=O)[C@H](O)[C@@H](NC(=O)OC(C)(C)C)c4ccccc4)C[C@@](O)([C@@H](OC(=O)c4ccccc4)[C@H]21)C3(C)C [Docetaxel] + NC(=O)Nc1cc(-c2cccc(F)c2)sc1C(=O)N[C@H]1CCCNC1 [AZD7762] (partner 0.2 µM) when tested on HOP-62 reads 0.0943

###

Tested on: HCC-78
Assay: relative viability (nuclei count vs DMSO), 5 days (fraction); higher = more cells survive
Conditions: first compound 0.5 µM
Exercise: state measured relative viability for each of the compounds provided.
One number for each entry.

compound: COc1cc2nccc(Oc3ccc(NC(=O)Nc4cc(C)on4)c(Cl)c3)c2cc1OC [Tivozanib] + Cc1nc(NC(=O)N2CCC[C@H]2C(N)=O)sc1-c1ccnc(C(C)(C)C(F)(F)F)c1 [Alpelisib] (partner 2 µM)
number: 0.316

I'm hoping you can list relative viability for every compound here, please.
1. Nc1ccn([C@@H]2O[C@H](CO)[C@@H](O)[C@@H]2O)c(=O)n1 [Cytarabine] + CC(C)C[C@H](NC(=O)[C@H](Cc1ccccc1)NC(=O)c1cnccn1)B(O)O [Bortezomib] (partner 0.002 µM)
2. COc1cc2nccc(Oc3ccc(NC(=O)Nc4cc(C)on4)c(Cl)c3)c2cc1OC [Tivozanib] + CC(C)C[C@H](NC(=O)[C@H](Cc1ccccc1)NC(=O)c1cnccn1)B(O)O [Bortezomib] (partner 0.002 µM)
3. COc1cc2nccc(Oc3ccc(NC(=O)Nc4cc(C)on4)c(Cl)c3)c2cc1OC [Tivozanib] + Nc1ncn([C@H]2C[C@H](O)[C@@H](CO)O2)c(=O)n1 [Decitabine] (partner 2 µM)

[0.252, 0.452, 0.667]
